- Test system: T47D cells
- protocol.description: cells
- experimental.conditions: Homo sapiens, 24 h, read-out: Cell Viability IC50 (μM) ± SEM
measurement.label: IC50 (µM)

[
  {
    "sample.smiles": "O=C1CC[C@@]2(O)[C@H]3Cc4ccc(O)c5c4[C@@]2(CCN3CC2CC2)[C@H]1O5",
    "measurement.label": "IC50",
    "measurement": 125
  }
]

###

- Test system: MDA-MB-468 cells
- protocol.description: cells
- experimental.conditions: read-out: Cell Viability IC50 (μM) ± SEM; MDA-MB-468, 48 h

[
  {
    "sample.smiles": "CC1(C)SSC(C)(C)[C@@H](NC(=O)[C@@H](N)Cc2ccc(O)cc2)C(=O)NCC(=O)N[C@@H](Cc2ccccc2)C(=O)N[C@H]1C(=O)O",
    "IC50, µM": 118
  }
]

###

- Tested on: T47D cells
- protocol.description: cells
- experimental.conditions: read-out: Cell Viability IC50 (μM) ± SEM, 24 h

[
  {
    "sample.smiles": "CC1(C)SSC(C)(C)[C@@H](NC(=O)[C@@H](N)Cc2ccc(O)cc2)C(=O)NCC(=O)N[C@@H](Cc2ccccc2)C(=O)N[C@H]1C(=O)O",
    "target.under.test": "T47D cells",
    "IC50 (µM)": 125
  }
]

###

- System: MDA-MB-468 cells
- protocol.description: cells
- experimental.conditions: Homo sapiens, MDA-MB-468, 24 h, read-out: Cell Viability IC50 (μM) ± SEM
measurement.label: IC50 (µM)

[
  {
    "compound": "O=C1CC[C@@]2(O)[C@H]3Cc4ccc(O)c5c4[C@@]2(CCN3CC2CC2)[C@H]1O5 [NTX]",
    "measurement.label": "IC50",
    "measurement": 122
  }
]

From: patent US20240390490A1
